# assay: Cellular Toxicity (caspase-3) Hek293 (AID 664);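 further: cells exposed to compound for 16 h at 37 °C before readout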
# measurement_conditions: HEK293 caspase-3 activation, DMSO = 0%, 100 µM tamoxifen = 100%; at 92.2 µM (top of the series)
Records with an inconclusive call do not appear.
recorded_endpoint: caspase-3 activation (%)
State just the number; it will be interpreted in %.

NC(N)=S | -1.2
C/C(C=O)=C/c1ccccc1 | 0.188
Cc1ccc2ccccc2c1[N+](=O)[O-] | -2.81

Query: Give the value of caspase-3 activation reported for the following: ClCCl
Reply: 1.14

Query: Give the value of caspase-3 activation reported for the following: Cc1ccc(S(=O)(=O)NC2CCCCC2)cc1
Reply: 2.22

Query: Give the value of caspase-3 activation reported for the following: Cc1ccc(C)c(O)c1
Reply: 0.519

Query: Give the value of caspase-3 activation reported for the following: NC(=O)CCCCC(N)=O
Reply: -0.72

Query: Give the value of caspase-3 activation reported for the following: Cc1ccc(C(=O)O)cc1
Reply: 0.649

Query: Give the value of caspase-3 activation reported for the following: C=C(C)C(N)=O
Reply: -0.593

Query: Give the value of caspase-3 activation reported for the following: C=C(C)C(=O)OC
Reply: 1.97

Query: Give the value of caspase-3 activation reported for the following: CC(=O)c1cccc([N+](=O)[O-])c1
Reply: 2.43

Query: Give the value of caspase-3 activation reported for the following: C=CC(=O)OCCCC
Reply: 0.453

Query: Give the value of caspase-3 activation reported for the following: C=C(C)C(=O)OCCCCCC
Reply: -0.643

Query: Give the value of caspase-3 activation reported for the following: C=Cc1ccccn1
Reply: 3.43

Query: Give the value of caspase-3 activation reported for the following: C=CCCCC
Reply: 1.21

Query: Give the value of caspase-3 activation reported for the following: OC(CCl)CCl
Reply: 2.01

Query: Give the value of caspase-3 activation reported for the following: Nc1cccc2c(=O)[nH][nH]c(=O)c12
Reply: -1.17

Query: Give the value of caspase-3 activation reported for the following: CC(O)CC(C)O (stereo not drawn)
Reply: -0.296

Query: Give the value of caspase-3 activation reported for the following: NCCCCCCN
Reply: -1.45

Query: Give the value of caspase-3 activation reported for the following: Cc1ccc(C)c(N)c1
Reply: 3.4

Query: Give the value of caspase-3 activation reported for the following: CC(=O)OCc1ccco1
Reply: -4.85

Query: Give the value of caspase-3 activation reported for the following: CCCCC/C=C/C=C/C=O
Reply: 163

Query: Give the value of caspase-3 activation reported for the following: Cc1ccc(CO)cc1
Reply: 0.73
